# measurementTarget: HCV polymerase (Hepatitis C virus genotype 1b, UniProt P26663)
# Construct: 2.5 pmoles (0.15 μg) HCV polymerase protein in a final volume of 75 μL
# Sequence (P26663 2420-3010): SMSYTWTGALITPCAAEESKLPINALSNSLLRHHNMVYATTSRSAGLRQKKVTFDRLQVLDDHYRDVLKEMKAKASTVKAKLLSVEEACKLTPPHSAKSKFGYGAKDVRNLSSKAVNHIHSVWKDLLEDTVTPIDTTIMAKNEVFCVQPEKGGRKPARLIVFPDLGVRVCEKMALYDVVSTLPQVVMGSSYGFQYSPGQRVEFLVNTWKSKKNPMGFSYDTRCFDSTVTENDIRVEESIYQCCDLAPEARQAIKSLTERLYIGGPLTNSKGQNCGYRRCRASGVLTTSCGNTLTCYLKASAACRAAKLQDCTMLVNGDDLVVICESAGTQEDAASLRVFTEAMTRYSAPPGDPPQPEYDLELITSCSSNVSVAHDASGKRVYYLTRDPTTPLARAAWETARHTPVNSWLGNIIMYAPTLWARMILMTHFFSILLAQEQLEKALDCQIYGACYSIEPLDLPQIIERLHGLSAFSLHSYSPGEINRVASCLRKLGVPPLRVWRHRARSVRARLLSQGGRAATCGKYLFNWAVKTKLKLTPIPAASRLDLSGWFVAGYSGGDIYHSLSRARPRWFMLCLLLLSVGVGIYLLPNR
# assayMethodText: HCV polymerase primer/template-directed transcription assay (32P-GTP incorporation, filter binding)
# Assay type: biochemical
# statedConditions: recombinant HCV polymerase; 30 minutes at 30° C.; concentration giving 50% inhibition of polymerase-directed transcription; read-out: IC50
quantityName: IC50 (nM)
Express the result in nM but write the number alone.

Worked examples follow.
COc1ccc(CCC2(C3CCCC3)CC(O)=C(Sc3nnc(-c4cccnc4)n3C)C(=O)O2)cc1Cl (stereo not shown) [C(96)]    75
CC(C)(C#N)c1ccc(CCC2(C3CCCC3)CC(O)=C(Cc3nc4ncc(Cl)cn4n3)C(=O)O2)cc1F (single isomer, unassigned; (-)) [A(249)]    19
Cc1cc(C)n2nc(CC3=C(O)CC(CCc4ccc(OC(C)C)c(F)c4)(C4CCCC4)OC3=O)nc2n1 (stereo not shown) [B(18)]    21
COc1ccc(CCC2(C3CCCC3)CC(O)=C(Sc3nnc(-c4ccccc4)[nH]3)C(=O)O2)cc1Cl (stereo not shown) [C(22)]    68
CCc1cc(CCC2(C3CCCC3)CC(=O)CC(=O)O2)ccc1F (stereo not shown) [A(65)]    1300

IN: Return reported IC50; argument: CC(C)(C#N)c1ccc(CCC2(C3CCCC3)CC(O)=C(Cc3nc4ncc(Cl)cn4n3)C(=O)O2)cc1F (single isomer, unassigned; (+)) [A(248)]
OUT: 16

IN: Return reported IC50; argument: Cc1cc(C)n2nc(CC3=C(O)CC(CCc4ccc(OC(C)C)c(C)c4)(C4CCCC4)OC3=O)nc2n1 (stereo not shown) [B(11)]
OUT: 19

IN: Return reported IC50; argument: CCc1ccc(OCCOC)c(CCC2(C3CCCC3)CC(O)=C(Cc3nc4nc(C)cc(C)n4n3)C(=O)O2)c1 (stereo not shown) [A(177)]
OUT: 14

IN: Return reported IC50; argument: CCc1cc(CCC2(C3CCCC3)CC(=O)CC(=O)O2)ccn1 (stereo not shown) [A(163)]
OUT: 1900

IN: Return reported IC50; argument: O=C1CC(=O)OC(CCNC(=O)c2ccco2)(C2CCCC2)C1 (stereo not shown) [H(2)]
OUT: 51000

IN: Return reported IC50; argument: COc1ccc(CCC2(C3CCCC3)CC(O)=C(Cc3nc4nc(C)cc(C)n4n3)C(=O)O2)cc1Cl (stereo not shown) [B(13)]
OUT: 20

IN: Return reported IC50; argument: CC(C)(O)c1ccc(CCC2(C3CCCC3)CC(=O)CC(=O)O2)cc1F (stereo not shown) [A(215)]
OUT: 4900

----------
# measurementTarget: HCV polymerase (Hepatitis C virus genotype 1b, UniProt P26663)
# Construct: 2.5 pmoles (0.15 μg) HCV polymerase protein in a final volume of 75 μL
# assayMethodText: HCV polymerase primer/template-directed transcription assay (32P-GTP incorporation, filter binding)
# Format: biochemical
# statedConditions: recombinant HCV polymerase; 30 minutes at 30° C.; concentration giving 50% inhibition of polymerase-directed transcription; read-out: IC50
quantityName: pIC50
Would you please state pIC50, meaning minus log10 of the concentration in mol/L, as a bare number?

IN: Return reported pIC50; argument: CCc1cccc(CCC2(C3CCCC3)CC(=O)CC(=O)O2)c1 (single isomer, unassigned) [J(6)]
OUT: 5.92

----------
# measurementTarget: HCV polymerase (Hepatitis C virus genotype 1b, UniProt P26663)
# Construct: 2.5 pmoles (0.15 μg) HCV polymerase protein in a final volume of 75 μL
# assayMethodText: HCV polymerase primer/template-directed transcription assay (32P-GTP incorporation, filter binding)
# Format: biochemical
# statedConditions: recombinant HCV polymerase; 30 minutes at 30° C.; concentration giving 50% inhibition of polymerase-directed transcription; read-out: IC50
pIC50: −log10 of the molar value.
Label TRUE when pIC50 is at or above 7; anything below gets FALSE.

COc1ccc(CCC2(C3CCCC3)CC(O)=C(Cc3nc(C)cc(=O)[nH]3)C(=O)O2)cc1Cl (centres unmarked)    FALSE
Cc1cc(C)n2nc(CC3=C(O)CC(CCCCC4CCCCC4)(C4CCCC4)OC3=O)nc2n1 (centres unmarked)    TRUE
COc1ccc(CCC2(C3CCCC3)CC(=O)C(Cc3nccn3C)C(=O)O2)cc1Cl (centres unmarked)    FALSE

IN: Has CCOc1c(Cl)cc(CCC2(C3CCCC3)CC(O)=C(Cc3nc4nc(C)cc(C)n4n3)C(=O)O2)cc1Cl (centres unmarked) a recorded pIC50 greater than or equal to 7?
OUT: TRUE

IN: Has CNC(=O)N[C@H](C)c1ccc(CCC2(C3CCCC3)CC(=O)CC(=O)O2)cc1 (some centres unmarked) a recorded pIC50 greater than or equal to 7?
OUT: FALSE

IN: Has COc1cc(OC)c(CCC2(C3CCCC3)CC(O)=C(Sc3nc4cc(N)ccc4n3C)C(=O)O2)cc1Cl (centres unmarked) a recorded pIC50 greater than or equal to 7?
OUT: TRUE

IN: Has Cc1cc(C)n2nc(CC3=C(O)CC(CCc4ccc([C@@H](C)O)c(F)c4)(C4CCCC4)OC3=O)nc2n1 (stereo in doubt) a recorded pIC50 greater than or equal to 7?
OUT: TRUE

----------
# measurementTarget: HCV polymerase (Hepatitis C virus genotype 1b)
# Construct: 2.5 pmoles (0.15 μg) HCV polymerase protein in a final volume of 75 μL
# assayMethodText: HCV polymerase primer/template-directed transcription assay (32P-GTP incorporation, filter binding)
# Assay type: biochemical
# statedConditions: recombinant HCV polymerase; 30 minutes at 30° C.; concentration giving 50% inhibition of polymerase-directed transcription; read-out: IC50
# Protocol: The compounds described herein were tested for activity with HCV polymerase. […] The filters were counted in a Packard Tri-Lux Microbeta scintillation counter (Packard Bioscience, Meriden, Conn.). […]
Recorded pIC50 by entry
Would you please state pIC50, meaning minus log10 of the concentration in mol/L, as a bare number?

Worked examples follow.
CCn1cc(CCC2(C3CCCC3)CC(=O)CC(=O)O2)ccc1=O (centres unmarked) [A(01)]    4.42
O=C1CC(=O)OC(CCCNC(=O)CCc2ccco2)(C2CCCC2)C1 (centres unmarked) [H(3)]    5.92
Cc1cc(C)n2nc(CC3=C(O)CC(CCc4ccc(C(C)(C)O)c(F)c4)(C4CCCC4)OC3=O)nc2n1 (centres unmarked) [A(217)]    7.85
CCc1cc(CCC2(C3CCCC3)CC(O)=C(Cc3nc4nc(C)cc(C)n4n3)C(=O)O2)ccc1OCCOC (centres unmarked) [A(183)]    8.15
CCc1ccc(O)c(CCC2(C3CCCC3)CC(O)=C(Cc3nc4ncc(Cl)cn4n3)C(=O)O2)c1 (centres unmarked) [A(170)]    8.00
CCc1cc(CCC2(C3CCCC3)CC(=O)CC(=O)O2)ccc1O (centres unmarked) [A(22)]    6.52
CC(C)(CNC(=O)c1cc[nH]n1)c1cccc(CCC2(C3CCCC3)CC(=O)CC(=O)O2)c1 (centres unmarked) [A(71)]    5.72

IN: Return reported pIC50; argument: CCNC(=O)C(C)(C)c1ccc(CCC2(C3CCCC3)CC(O)=C(Cc3nc4ncc(C)cn4n3)C(=O)O2)cc1F (centres unmarked) [A(268)]
OUT: 6.17

----------
# measurementTarget: HCV polymerase (Hepatitis C virus genotype 1b, UniProt P26663)
# Construct: 2.5 pmoles (0.15 μg) HCV polymerase protein in a final volume of 75 μL
# assayMethodText: HCV polymerase primer/template-directed transcription assay (32P-GTP incorporation, filter binding)
# Assay type: biochemical
# statedConditions: recombinant HCV polymerase; 30 minutes at 30° C.; concentration giving 50% inhibition of polymerase-directed transcription; read-out: IC50
pIC50: −log10 of the molar value.
Label Condition met when pIC50 is at or above 8; anything below gets Condition not met.

Study these solved cases before continuing.
COc1ccc(CCC2(C3CCCC3)CC(O)=C(Sc3nc4cc(Cl)ccc4n3C(C)C)C(=O)O2)cc1Cl (centres unmarked)    Condition not met
COc1ccc(CCC2(C3CCCC3)CC(O)=C(Sc3nnnn3C)C(=O)O2)cc1Cl (centres unmarked)    Condition not met
CCc1cc(CCC2(C3CCCC3)CC(=O)CC(=O)O2)ccc1OCCOC (centres unmarked)    Condition not met
CCc1cc(CCC2(C3CCCC3)CC(O)=C(Cc3nc4nc(C)cc(C)n4n3)C(=O)O2)c(O)cc1OC (centres unmarked)    Condition met
N#CC1(c2ccc(CCC3(C4CCCC4)CC(=O)CC(=O)O3)cc2)CC1 (centres unmarked)    Condition not met
COc1cc(OC)c(CCC2(C3CCCC3)CC(O)=C(Cc3nc(-c4ccccn4)no3)C(=O)O2)cc1Cl (centres unmarked)    Condition not met

IN: Has CCc1cc(CCC2(C3CCCC3)CC(O)=C(Cc3nc4nc(C)cc(C)n4n3)C(=O)O2)ccc1OCCO (centres unmarked) a recorded pIC50 greater than or equal to 8?
OUT: Condition met

IN: Has CCC(C#N)(CC)c1ccc(CCC2(C3CCCC3)CC(=O)CC(=O)O2)cc1F (centres unmarked) a recorded pIC50 greater than or equal to 8?
OUT: Condition not met
